Cited source for all entries: PubChem BioAssay (NCI)

Test system: A498 renal
EXPERIMENT: NCI-60 one-dose screen, 48 h (100 = growth as untreated, 0 = no growth, -100 = all killed)
ASSAY CONTEXT: 10 µM unless noted
Compounds without any hit were thinned out: in the full panel of roughly 83,000, 20% have a hit.
Definition: the class of an entry is the range in bottom range: < 40%; center range: ≥ 40% and < 70%; top range: ≥ 70% that contains its growth.

MOLECULAR STRING: CCc1nnc(NC(=O)c2nnn(-c3ccccc3)c2-c2ccco2)s1
LABEL VALUE: center range
--
MOLECULAR STRING: O=c1c2cc(F)ccc2sc2c(N3CCNCC3)nc3ccc(F)cc3c12
LABEL VALUE: center range
--
MOLECULAR STRING: S=C(c1cccs1)N1CCN(c2cccc(Cl)c2)CC1
LABEL VALUE: top range
--
MOLECULAR STRING: FC(F)(F)c1cc(Nc2ccc3c(OCCCN4CCOCC4)cccc3n2)ccc1Cl
LABEL VALUE: center range
--
MOLECULAR STRING: O=[N+]([O-])c1ccccc1NCSc1ccc(Cl)cc1
LABEL VALUE: top range
--
MOLECULAR STRING: CN(C)CCCNc1nc2ccccc2c2c(=O)c3cc(F)ccc3sc12
LABEL VALUE: bottom range
--
MOLECULAR STRING: O=C(COc1ccc(/C=C2\Cc3ccc(Cl)cc3C2=O)cc1)Nc1nc2ccccc2s1
LABEL VALUE: top range
--
MOLECULAR STRING: O=c1n(Cc2ccc3ccccc3c2)ccn1Cc1ccc2ccccc2c1
LABEL VALUE: top range
--
MOLECULAR STRING: Cc1c(C(=O)NCCN2CCOCC2)cn2ncnc(Oc3ccc(NC(=O)Nc4ccc(Cl)c(C(F)(F)F)c4)cc3)c12
LABEL VALUE: bottom range
--
MOLECULAR STRING: O=c1c2cccc(Cl)c2sc2c(NCCCNCCO)nc3ccccc3c12
LABEL VALUE: bottom range
--
MOLECULAR STRING: O=C(Nc1ccc(I)cc1F)c1cc(I)ccc1O
LABEL VALUE: bottom range

---

Tested on: HCT-116 colon
EXPERIMENT: NCI-60 one-dose screen, 48 h
ASSAY CONTEXT: 10 µM unless noted
Compounds without any hit were thinned out: in the full panel of roughly 83,000, 20% have a hit. Activity calls are given as the source filed them. The calls were made as follows: active = growth percent below 10; inactive = the rest.
Outcome codes: active, inactive

COMPOUND: COc1cccc(-c2nc(-c3ccc(NC(=O)c4ccccc4)cc3)[nH]c2-c2ccnc(Br)c2)c1
LABEL VALUE: inactive
//
COMPOUND: COC(=O)/C=C1\S/C(=N\Nc2ccc([N+](=O)[O-])cc2[N+](=O)[O-])N(C2CCCCC2)C1=O
LABEL VALUE: inactive
//
COMPOUND: COc1ccc(C(=O)N=Nc2c(O)n(C)c3ccccc23)cc1
LABEL VALUE: inactive
//
COMPOUND: C=C1C(=O)O[C@H]2[C@H]1CC/C(COC(=O)CCC(=O)NCCOCCOCC(=O)Nc1ccc(OC)c(C(N)=O)c1O)=C\CC[C@@]1(C)O[C@@H]21
LABEL VALUE: inactive
//
COMPOUND: COc1cc(C(=O)/C=C/c2sc(Cl)nc2Cl)cc(OC)c1OC
LABEL VALUE: active
//
COMPOUND: CCCCCCNC(=O)Oc1ccc(/C(=C(\C)c2ccc(Cl)cc2)c2ccc(OCCN3CCCCC3)cc2)cc1
LABEL VALUE: active
//
COMPOUND: COc1ccc(N)c(N)c1
LABEL VALUE: inactive
//
COMPOUND: Clc1ccc2c(c1)N(CCCN1CCCC1)c1ccccc1S2
LABEL VALUE: inactive
//
COMPOUND: Cc1ccc(/C=C(\C#N)n2nc3cccc(F)c3n2)cc1
LABEL VALUE: inactive
//
COMPOUND: CN1CCN(c2ccc(-c3cc4c(Nc5ccc(F)c(Cl)c5)ncnn4c3)cc2)CC1
LABEL VALUE: inactive
//
COMPOUND: COc1cc(/C=C/c2ccccc2)cc(OC)c1
LABEL VALUE: inactive
//
COMPOUND: C=C1C(=O)O[C@H]2[C@H]1CC/C(COC(=O)C(C)c1ccc(CC(C)C)cc1)=C\CC[C@@]1(C)O[C@@H]21 (some centres undefined)
LABEL VALUE: active
//
COMPOUND: COc1ccc2sc3c(NCCCNCCO)nc4ccccc4c3c(=O)c2c1
LABEL VALUE: active
//
COMPOUND: CCCCCCN(CCCCCC)c1ccc(/C=C2/SC(=O)NC2=O)c(C)c1
LABEL VALUE: inactive
//
COMPOUND: c1ccc(CO[C@H]2CO[C@H]3[C@@H]2OC[C@@H]3Oc2ccc(Nc3ncnc4ccsc34)cc2)cc1
LABEL VALUE: inactive
//
COMPOUND: CCCCCCCCCCCCCCCCCCOc1ccc(CC(=O)OCC[N+]2(C)CCCCC2)cc1
LABEL VALUE: inactive
//
COMPOUND: CN(C)CCCNc1nc2ccccc2c2c(=O)c3cc(F)ccc3sc12
LABEL VALUE: active
//
COMPOUND: CCOc1ccc2nc(SCc3nc4n(n3)S(=O)(=O)c3ccccc3N4C)sc2c1
LABEL VALUE: inactive
//
COMPOUND: CN(C(=O)NCc1cccc(F)c1Cl)[C@H](COC(=O)Nc1cc2ccccc2cn1)CC(O)CO (some centres undefined)
LABEL VALUE: inactive
//
COMPOUND: COc1ccc(N2C(=O)C(Oc3ccccc3)C2c2ccc(C)cc2)cc1 (centres undefined)
LABEL VALUE: inactive
//
COMPOUND: CC(C)c1cc(C(C)C)c(S(=O)(=O)Oc2ccc(NC(=O)c3ccc(Cl)cc3)cc2)c(C(C)C)c1
LABEL VALUE: active
//
COMPOUND: COc1ccc2c(c1)c(-c1nn3cc(-c4cccs4)nc3s1)cn2C
LABEL VALUE: inactive
//
COMPOUND: CNC(=O)c1cc(-n2ccc3cc(NC(=O)c4ccc(N5CCOCC5)c(C(F)(F)F)c4)ccc32)ccn1
LABEL VALUE: inactive
//
COMPOUND: CC([C@H]1CCC2C3CCC4C[C@@H](NC=O)CC[C@]4(C)C3CC[C@@]21C)N(C)C (some centres undefined)
LABEL VALUE: active
